Kindly state pKi for each of the entries shown.
# Target under test: UniProt C7C422
# Sequence (C7C422 29-270, looked up): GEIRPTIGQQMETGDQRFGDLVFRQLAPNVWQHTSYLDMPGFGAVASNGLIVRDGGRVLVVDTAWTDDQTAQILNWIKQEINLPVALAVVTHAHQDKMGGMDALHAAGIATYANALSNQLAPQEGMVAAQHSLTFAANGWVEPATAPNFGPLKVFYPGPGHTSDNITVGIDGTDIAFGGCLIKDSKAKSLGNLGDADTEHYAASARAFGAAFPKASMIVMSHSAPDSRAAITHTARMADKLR
# Test details: In vitro enzyme inhibition assay, purified NDM-1 (imipenem hydrolysis, UV 299 nm)
# Format: biochemical
# Assay context: mean Ki from multiple experiments; imipenem 300 μM; Cheng-Prusoff from IC50; read-out: Ki NDM-1
pKi: −log10 of the molar value.

Hey, UniProt C7C422 data for C[C@@H](NC(=N)N)C(=O)Nc1ccc(S(=O)(=O)Nc2scnc2C(=O)O)cc1 [Example 11] : pKi came out at 5.70 to 6.70

Form: item N=C(N)NCC(=O)Nc1ccc(S(=O)(=O)Nc2scnc2C(=O)O)cc1C(N)=O [Example 6] ; test system UniProt C7C422; pKi: 5.70 to 6.70

// returns pKi for N=C(N)NCC(=O)Nc1ncc(S(=O)(=O)Nc2scnc2C(=O)O)s1 [Example 23] with UniProt C7C422; value = > 7.30

Kindly note: UniProt C7C422, N=C(N)NNCC(=O)Nc1ccc(S(=O)(=O)Nc2scnc2C(=O)O)cc1F [Example 41] , pKi value reported: > 7.30

Kindly note: UniProt C7C422, N=C(N)NCC(=O)Nc1cc(F)c(S(=O)(=O)Nc2scnc2C(=O)O)cc1F [Example 9] , pKi value reported: 6.70 to 7.30

# lookup: N=C(N)NNC(=O)Cc1ccc(S(=O)(=O)Nc2scnc2C(=O)O)cc1F [Example 24] on UniProt C7C422, pKi = 6.70 to 7.30

Noted pKi for N=C(NCC(=O)Nc1ccc(S(=O)(=O)Nc2scnc2C(=O)O)cc1F)N1CCOCC1 [Example 33] , tested on UniProt C7C422: 5.70 to 6.70

Recorded pKi for O=C(CC1=NCCN1)Nc1ccc(S(=O)(=O)Nc2scnc2C(=O)O)cc1F [Example 21] on UniProt C7C422 was > 7.30
